Give measured MIC for each item. Keep answers brief.
tested on: Staphylococcus aureus; assay: Antibacterial activity against methicillin-resistant Staphylococcus aureus ATCC 43300 assessed as inhibition of bacterial growth measured after 18 hrs by resazurin dye based analysis; type: functional

Exam item: Suppose we examine the compound C[C@]1(C(=O)NCCCNCCCCCCCCNCCCNC(=O)[C@@]2(C)CCC[C@]3(C)c4cc(O)ccc4CC[C@@H]23)CCC[C@]2(C)c3cc(O)ccc3CC[C@@H]12.O=C(O)C(F)(F)F.O=C(O)C(F)(F)F ; what MIC value has been reported?
Marked response: 8 µM

Exam item: # iterate: C[C@]1(C(=O)NCCCNCCCCCCCCN)CCC[C@]2(C)c3cc(OC(=O)NCCCNCCCCCCCCN)ccc3CC[C@@H]12.O=C(O)C(F)(F)F.O=C(O)C(F)(F)F.O=C(O)C(F)(F)F.O=C(O)C(F)(F)F
Marked response: > 28 µM

Exam item: Proceed to C[C@]1(C(=O)NCCCNCCCCCCCCN)CCC[C@]2(C)c3cc(O)ccc3CC[C@@H]12.O=C(O)C(F)(F)F.O=C(O)C(F)(F)F
Marked response: 46.7 µM

Exam item: And what about the compound C[C@]1(C(=O)NCCCNCCCCCCCCCCCCN)CCC[C@]2(C)c3cc(OC(=O)NCCCNCCCCCCCCCCCCN)ccc3CC[C@@H]12.O=C(O)C(F)(F)F.O=C(O)C(F)(F)F.O=C(O)C(F)(F)F.O=C(O)C(F)(F)F ?
Marked response: ≤ 0.2 µM

Exam item: Subsequent entry: C[C@]1(C(=O)NCCCNCCCCCCN)CCC[C@]2(C)c3cc(O)ccc3CC[C@@H]12.O=C(O)C(F)(F)F.O=C(O)C(F)(F)F
Marked response: > 48.6 µM

###

tested on: Klebsiella pneumoniae; assay: Antibacterial activity against Klebsiella pneumoniae ATCC 700603 assessed as inhibition of bacterial growth measured after 18 hrs by resazurin dye based analysis; format: functional
QUANTITY: MIC

Exam item: Request the reported MIC associated with C[C@]1(C(=O)NCCCNCCCCCCCN)CCC[C@]2(C)c3cc(OC(=O)NCCCNCCCCCCCN)ccc3CC[C@@H]12.O=C(O)C(F)(F)F.O=C(O)C(F)(F)F.O=C(O)C(F)(F)F.O=C(O)C(F)(F)F
Marked response: > 29.7 µM

Exam item: Record: C[C@]1(C(=O)NCCCNCCCCCCCCCCCCNCCCNC(=O)[C@@]2(C)CCC[C@]3(C)c4cc(O)ccc4CC[C@@H]23)CCC[C@]2(C)c3cc(O)ccc3CC[C@@H]12.O=C(O)C(F)(F)F.O=C(O)C(F)(F)F
Marked response: > 30.3 µM

Exam item: Now the molecule C[C@]1(C(=O)O)CCC[C@]2(C)c3cc(OC(=O)NCCCNCCCCCCCN)ccc3CC[C@@H]12.O=C(O)C(F)(F)F.O=C(O)C(F)(F)F
Marked response: > 44.7 µM

###

assay: Cytotoxicity against HEK293 cells assessed as cell growth inhibition measured after 20 hrs by resazurin dye based assay; assay type: toxicity; conditions: human
Please provide measured IC50 at 20 h for the entries that follow.

Exam item: Please look up its IC50 at 20 h: C[C@]1(C(=O)O)CCC[C@]2(C)c3cc(OC(=O)CCCNCCCCCCCNCCCNC(=O)Oc4ccc5c(c4)[C@@]4(C)CCC[C@](C)(C(=O)O)[C@@H]4CC5)ccc3CC[C@@H]12.O=C(O)C(F)(F)F.O=C(O)C(F)(F)F
Marked response: > 29.8 µM

Exam item: Field entry: COC(=O)[C@@]1(C)CCC[C@]2(C)c3cc(OC(=O)CCCNCCCCCCCNCCCNC(=O)Oc4ccc5c(c4)[C@@]4(C)CCC[C@](C)(C(=O)OC)[C@@H]4CC5)ccc3CC[C@@H]12.O=C(O)C(F)(F)F.O=C(O)C(F)(F)F
Marked response: > 29.1 µM

Exam item: For C[C@]1(C(=O)O)CCC[C@]2(C)c3cc(OC(=O)CCCNCCCCCCCCNCCCNC(=O)Oc4ccc5c(c4)[C@@]4(C)CCC[C@](C)(C(=O)O)[C@@H]4CC5)ccc3CC[C@@H]12.O=C(O)C(F)(F)F.O=C(O)C(F)(F)F then?
Marked response: > 29.4 µM

Exam item: Thanks! And C[C@]1(C(=O)NCCCNCCCCCCCN)CCC[C@]2(C)c3cc(O)ccc3CC[C@@H]12.O=C(O)C(F)(F)F.O=C(O)C(F)(F)F ?
Marked response: > 47.6 µM

Exam item: Would you kindly repeat that for C[C@]1(C(=O)NCCCNCCCCCCCNCCCNC(=O)[C@@]2(C)CCC[C@]3(C)c4cc(O)ccc4CC[C@@H]23)CCC[C@]2(C)c3cc(O)ccc3CC[C@@H]12.O=C(O)C(F)(F)F.O=C(O)C(F)(F)F ?
Marked response: 19.1 µM

Exam item: What would you report for C[C@]1(C(=O)NCCCNCCCCCCN)CCC[C@]2(C)c3cc(OC(=O)NCCCNCCCCCCN)ccc3CC[C@@H]12.O=C(O)C(F)(F)F.O=C(O)C(F)(F)F.O=C(O)C(F)(F)F.O=C(O)C(F)(F)F ?
Marked response: > 29.5 µM

Exam item: Okay, and COC(=O)[C@@]1(C)CCC[C@]2(C)c3cc(OC(=O)CCCNCCCCCCCCNCCCNC(=O)Oc4ccc5c(c4)[C@@]4(C)CCC[C@](C)(C(=O)OC)[C@@H]4CC5)ccc3CC[C@@H]12.O=C(O)C(F)(F)F.O=C(O)C(F)(F)F ?
Marked response: > 28.7 µM

Exam item: Follow-up item: CCCCCNC(=O)[C@@]1(C)CCC[C@]2(C)c3cc(OC(=O)CCCNCCCCCCNCCCNC(=O)Oc4ccc5c(c4)[C@@]4(C)CCC[C@](C)(C(=O)NCCCCC)[C@@H]4CC5)ccc3CC[C@@H]12.O=C(O)C(F)(F)F.O=C(O)C(F)(F)F
Marked response: > 26.7 µM

Exam item: Repeat with C[C@]1(C(=O)NCCCNCCCCCCCCCCNCCCNC(=O)[C@@]2(C)CCC[C@]3(C)c4cc(O)ccc4CC[C@@H]23)CCC[C@]2(C)c3cc(O)ccc3CC[C@@H]12.O=C(O)C(F)(F)F.O=C(O)C(F)(F)F
Marked response: 0.87 µM

Exam item: Same read-out for C[C@]1(C(=O)NCCCNCCCCCCNCCCNC(=O)[C@@]2(C)CCC[C@]3(C)c4cc(O)ccc4CC[C@@H]23)CCC[C@]2(C)c3cc(O)ccc3CC[C@@H]12.O=C(O)C(F)(F)F.O=C(O)C(F)(F)F ?
Marked response: 28.6 µM

Exam item: Please do the same for C[C@]1(C(=O)O)CCC[C@]2(C)c3cc(OC(=O)CCCNCCCCCCCCCCNCCCNC(=O)Oc4ccc5c(c4)[C@@]4(C)CCC[C@](C)(C(=O)O)[C@@H]4CC5)ccc3CC[C@@H]12.O=C(O)C(F)(F)F.O=C(O)C(F)(F)F as well.
Marked response: > 28.7 µM

Exam item: Next entry: CCCCCNC(=O)[C@@]1(C)CCC[C@]2(C)c3cc(OC(=O)CCCNCCCCCCCCNCCCNC(=O)Oc4ccc5c(c4)[C@@]4(C)CCC[C@](C)(C(=O)NCCCCC)[C@@H]4CC5)ccc3CC[C@@H]12.O=C(O)C(F)(F)F.O=C(O)C(F)(F)F
Marked response: > 26.1 µM
